Assay: Phase 4 open-label single-dose study: pharmacokinetics of solriamfetol in plasma of healthy postpartum women
Type: in vivo, human
Conditions: female, human, po, 150 mg, single oral 150 mg, read-out: t1/2 (approximate) (converted)
Where a name gives a salt, the structure may show the parent alone.
propertyName: half-life

Any idea what half-life was measured for NC(=O)OC[C@H](N)Cc1ccccc1 [Solriamfetol, hydrochloride] ?
~5 h

###

Assay: Phase 4 open-label single-dose study: pharmacokinetics of solriamfetol in plasma of healthy postpartum women
Type: in vivo, human
Conditions: female, human, po, 150 mg, single oral 150 mg solriamfetol tablet, N = 6, read-out: Cmax, Arithmetic Mean (CV %)
Where a name gives a salt, the structure may show the parent alone.
propertyName: Cmax (ng/mL)
Answers are plain numbers, in ng/mL.

Any idea what Cmax was measured for NC(=O)OC[C@H](N)Cc1ccccc1 [Solriamfetol, hydrochloride] ?
905

###

Experiment: Phase 4 open-label single-dose study: pharmacokinetics of solriamfetol in plasma of healthy postpartum women
Type: in vivo, human
Conditions: female, human, po, 150 mg, single oral 150 mg solriamfetol tablet, N = 6, read-out: Vz/F, Geometric Mean
Where a name gives a salt, the structure may show the parent alone.
propertyName: Vd/F (L)
Give bare numbers, in L.

Any idea what Vd/F was measured for NC(=O)OC[C@H](N)Cc1ccccc1 [Solriamfetol, hydrochloride] ?
162

###

Assay: Phase 4 open-label single-dose study: pharmacokinetics of solriamfetol in plasma of healthy postpartum women
Type: in vivo, human
Conditions: female, human, po, 150 mg, single oral 150 mg solriamfetol tablet, N = 6, read-out: tmax, Median (min, max)
Counter-ions that a name gives are not always drawn.
propertyName: Tmax (h)
Give bare numbers, in h.

Any idea what Tmax was measured for NC(=O)OC[C@H](N)Cc1ccccc1 [Solriamfetol, hydrochloride] ?
1.25

###

Assay: Phase 4 open-label single-dose study: pharmacokinetics of solriamfetol in breast milk of healthy postpartum women
Assay type: in vivo, human
Details: female, human, breast milk, po, 150 mg, breast milk; single oral 150 mg solriamfetol tablet; N = 6; read-out: AUC0-t, Geometric Mean
Where a name gives a salt, the structure may show the parent alone.
propertyName: AUC(0-t) (ng·h/mL)
One number for each entry, in ng·h/mL.

Any idea what AUC(0-t) was measured for NC(=O)OC[C@H](N)Cc1ccccc1 [Solriamfetol, hydrochloride] ?
12800

###

Experiment: Phase 4 open-label single-dose study: pharmacokinetics of solriamfetol in breast milk of healthy postpartum women
Assay type: in vivo, human
Details: female, human, breast milk, po, 150 mg, breast milk; single oral 150 mg solriamfetol tablet; healthy postpartum women N = 6; read-out: AUC0-inf, Arithmetic Mean (CV %)
Experimental: A Phase 4, open-label, single-dose study to evaluate the pharmacokinetics (PK) of solriamfetol in the breast milk and plasma of healthy postpartum women following oral administration of a 150 mg solriamfetol tablet. The study was conducted in 6 healthy adult lactating women who were between 15 and 37 weeks postpartum and were administered a single oral dose of SUNOSI 150 mg. […] Breastfed infants should be monitored for adverse reactions, such as agitation, insomnia, anorexia, and reduced weight gain. […]
Counter-ions that a name gives are not always drawn.
propertyName: AUC(0-inf) (ng·h/mL)
One number for each entry, in ng·h/mL.

Any idea what AUC(0-inf) was measured for NC(=O)OC[C@H](N)Cc1ccccc1 [Solriamfetol, hydrochloride] ?
13800

###

Assay: Phase 4 open-label single-dose study: pharmacokinetics of solriamfetol in plasma of healthy postpartum women
Type: in vivo, human
Settings: female, human, po, 150 mg, single oral 150 mg solriamfetol tablet, N = 6, read-out: AUC0-inf, Geometric Mean
Structures can show the parent of a compound that is named as a salt.
propertyName: AUC(0-inf) (ng·h/mL)
Answers are plain numbers, in ng·h/mL.

Any idea what AUC(0-inf) was measured for NC(=O)OC[C@H](N)Cc1ccccc1 [Solriamfetol, hydrochloride] ?
6340

###

Test: Phase 4 open-label single-dose study: pharmacokinetics of solriamfetol in breast milk of healthy postpartum women
Assay type: in vivo, human
Conditions: female, human, breast milk, po, 150 mg, breast milk; single oral 150 mg; read-out: tmax range
Counter-ions that a name gives are not always drawn.
propertyName: Tmax

Any idea what Tmax was measured for NC(=O)OC[C@H](N)Cc1ccccc1 [Solriamfetol, hydrochloride] ?
1 to 3 h

###

Assay: Phase 4 open-label single-dose study: pharmacokinetics of solriamfetol in breast milk of healthy postpartum women
Type: in vivo, human
Conditions: female, human, breast milk / plasma, po, 150 mg, AUC in breast milk divided by AUC in plasma; single oral 150 mg; N = 6; read-out: Milk:Plasma Ratio, Geometric Mean
Structures can show the parent of a compound that is named as a salt.
propertyName: Kp

Any idea what Kp was measured for NC(=O)OC[C@H](N)Cc1ccccc1 [Solriamfetol, hydrochloride] ?
2.05

###

Test: Phase 4 open-label single-dose study: pharmacokinetics of solriamfetol in plasma of healthy postpartum women
Format: in vivo, human
Conditions: female, human, po, 150 mg, single oral 150 mg solriamfetol tablet, N = 6, read-out: AUC0-t, Geometric Mean
Counter-ions that a name gives are not always drawn.
propertyName: AUC(0-t) (ng·h/mL)
Answers are plain numbers, in ng·h/mL.

Any idea what AUC(0-t) was measured for NC(=O)OC[C@H](N)Cc1ccccc1 [Solriamfetol, hydrochloride] ?
6240

###

Assay: Phase 4 open-label single-dose study: pharmacokinetics of solriamfetol in breast milk of healthy postpartum women
Type: in vivo, human
Conditions: female, human, breast milk, po, 150 mg, breast milk; single oral 150 mg solriamfetol tablet; N = 6; read-out: Cmax, Arithmetic Mean (CV %)
Counter-ions that a name gives are not always drawn.
propertyName: Cmax
Please answer using a numeric value trailed by its unit.

Any idea what Cmax was measured for NC(=O)OC[C@H](N)Cc1ccccc1 [Solriamfetol, hydrochloride] ?
2.07 µg/mL

###

Test: Phase 4 open-label single-dose study: pharmacokinetics of solriamfetol in breast milk of healthy postpartum women
Assay type: in vivo, human
Conditions: female, human, breast milk, po, 150 mg, breast milk; single oral 150 mg solriamfetol tablet; N = 6; read-out: tmax, Median (min, max)
Protocol: A Phase 4, open-label, single-dose study to evaluate the pharmacokinetics (PK) of solriamfetol in the breast milk and plasma of healthy postpartum women following oral administration of a 150 mg solriamfetol tablet. The study was conducted in 6 healthy adult lactating women who were between 15 and 37 weeks postpartum and were administered a single oral dose of SUNOSI 150 mg. […] Breastfed infants should be monitored for adverse reactions, such as agitation, insomnia, anorexia, and reduced weight gain. […]
Structures can show the parent of a compound that is named as a salt.
propertyName: Tmax

Any idea what Tmax was measured for NC(=O)OC[C@H](N)Cc1ccccc1 [Solriamfetol, hydrochloride] ?
~1.1 h

###

Assay: Phase 4 open-label single-dose study: pharmacokinetics of solriamfetol in plasma of healthy postpartum women
Format: in vivo, human
Conditions: female, human, po, 150 mg, single oral 150 mg solriamfetol tablet, N = 6, read-out: t1/2, Arithmetic Mean (CV %) (converted)
Structures can show the parent of a compound that is named as a salt.
propertyName: half-life
Please answer using a numeric value trailed by its unit.

Any idea what half-life was measured for NC(=O)OC[C@H](N)Cc1ccccc1 [Solriamfetol, hydrochloride] ?
4.8 h

###

Assay: Phase 4 open-label single-dose study: pharmacokinetics of solriamfetol in plasma of healthy postpartum women
Format: in vivo, human
Details: female, human, po, 150 mg, single oral 150 mg solriamfetol tablet, N = 6, read-out: AUC0-t, Arithmetic Mean (CV %)
Counter-ions that a name gives are not always drawn.
propertyName: AUC(0-t) (ng·h/mL)
One number for each entry, in ng·h/mL.

Any idea what AUC(0-t) was measured for NC(=O)OC[C@H](N)Cc1ccccc1 [Solriamfetol, hydrochloride] ?
6440

###

Test: Phase 4 open-label single-dose study: pharmacokinetics of solriamfetol in breast milk of healthy postpartum women
Format: in vivo, human
Details: female, human, breast milk, po, 150 mg, breast milk; single oral 150 mg; read-out: t1/2 (approximate) (converted)
Counter-ions that a name gives are not always drawn.
propertyName: half-life

Any idea what half-life was measured for NC(=O)OC[C@H](N)Cc1ccccc1 [Solriamfetol, hydrochloride] ?
~5 h
